# experimental-system: T1, hRET.mmh (human, UniProt P07949 29-635, biotinylated in the ELISA of Example 4 (biot-hRET.mmh); not in the SPR of Example 3)
# T1 construct: also called biot-hRET.mmh; soluble monomeric human RET
# test-protocol: competition sandwich ELISA: 1 nM biot-hRET.mmh + antibody, plate-coated GDNF/GFRα1 co-complex
pIC50: −log10 of the molar value.
Below is a list of entries, each paired with its recorded pIC50 value.

binder	result
H4H8046P (antibody, human IgG4, V domains shown, human IgG4 Fc (H4H prefix)) VH: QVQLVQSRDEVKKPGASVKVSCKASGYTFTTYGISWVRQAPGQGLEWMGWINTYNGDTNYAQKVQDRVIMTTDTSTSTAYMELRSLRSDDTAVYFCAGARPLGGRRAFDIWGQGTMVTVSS VL: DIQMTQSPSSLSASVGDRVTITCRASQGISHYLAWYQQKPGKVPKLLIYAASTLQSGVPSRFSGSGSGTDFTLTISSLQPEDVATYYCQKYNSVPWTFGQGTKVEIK	> 9.60

Exam item: # return recorded pIC50 for entry H4H8060P (antibody, human IgG4, V domains shown, human IgG4 Fc (H4H prefix)) VH: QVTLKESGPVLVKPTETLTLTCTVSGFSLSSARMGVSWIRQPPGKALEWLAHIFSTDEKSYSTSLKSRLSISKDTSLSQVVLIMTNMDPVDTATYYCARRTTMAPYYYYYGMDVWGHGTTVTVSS VL: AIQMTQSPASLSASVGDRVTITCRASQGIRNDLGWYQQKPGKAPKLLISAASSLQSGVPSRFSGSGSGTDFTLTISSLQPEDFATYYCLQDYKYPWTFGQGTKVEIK
Marked response: > 9.60

Exam item: Assign pIC50 to the following record: H4H8080P (antibody, human IgG4, V domains shown, human IgG4 Fc (H4H prefix)) VH: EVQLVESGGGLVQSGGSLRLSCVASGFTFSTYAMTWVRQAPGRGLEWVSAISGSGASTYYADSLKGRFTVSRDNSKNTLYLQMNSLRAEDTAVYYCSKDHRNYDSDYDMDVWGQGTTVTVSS VL: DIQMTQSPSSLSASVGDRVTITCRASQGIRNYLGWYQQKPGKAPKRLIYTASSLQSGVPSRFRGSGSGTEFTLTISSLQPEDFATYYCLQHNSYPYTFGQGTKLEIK
Marked response: > 9.60
